Field: GI50. Provide a value for each of the compounds that follow.
Test system: Malme-3M
Test: NCI tumour cell line growth inhibition, 48 h
The source made the active and inactive calls. Cut-off read from the data, not from the text of the source: active = GI50 up to about 1.1 µM and inactive = higher.

## Task Enter measured GI50, system Malme-3M, for the compound shown: `COC[n+]1cc2cc(OC)c(OC)cc2c2ccc3cc(OC)c(OC)cc3c21`
## Result > 100 µM (inactive)

## Task Jot down GI50 (Malme-3M) of `C=CC(=O)C#CC#CC/C=C\CCCCCCC` .
## Result > 20.6 µM (inactive)

## Task Fill in GI50 for `O=C1/C(=C/c2ccc(Oc3ccccc3)cc2)N=C(c2ccccc2)N1c1ccc(S(=O)(=O)Nc2nccs2)cc1` tested with Malme-3M.
## Result 19.1 µM (inactive)

###

Test system: KM-20L2
Experiment: NCI tumour cell line growth inhibition, 48 h
Calls of active or inactive are those of the source. Cut-off read from the data, not from the text of the source: active = GI50 up to about 1.1 µM and inactive = higher.
Could you please report measured GI50 for the items listed next?

## Task Quote GI50 reported for Cc1ccc(N2Cc3c(ccc4ccccc34)OP2(=O)Oc2ccc(Cl)c(C)c2)cc1 (centres undefined) please.
## Result > 100 µM (inactive)

## Task Name the recorded GI50 of the compound listed here: CCOC(=O)CC1COc2ccc3c(c21)OCO3 (centres undefined)
## Result > 100 µM (inactive)

## Task Return GI50 (reported value) for this compound: `S=P1(N2CCCCC2)Oc2ccc3ccccc3c2-c2c(ccc3ccccc23)O1`
## Result > 78.9 µM (inactive)

## Task Tell me GI50 reported for `Cc1cc(NS(=O)(=O)c2ccc(Nc3c4ccccc4nc4c(C(=O)N5CCN(CCOS(C)(=O)=O)CC5)cccc34)cc2)no1`
## Result > 100 µM (inactive)

###

Exercise: for every item that follows, state its recorded GI50.
Tested on: CAKI-1
Assay: NCI tumour cell line growth inhibition, 48 h
The source made the active and inactive calls. No stated cut-off is given here; in the data, active = GI50 up to about 1.1 µM and inactive = higher.

## Task Give GI50 for the following molecule: `O=C(N[C@@H]1C=CCC[C@@H]1c1ccccc1)OCc1ccccc1`
## Result 12.2 µM (inactive)

## Task Using known records, supply GI50 for `C#CCN(Cc1ccc2nc(-c3ccccc3)c(Cl)nc2c1)c1cc(OC)c(OC)c(OC)c1`
## Result > 100 µM (inactive)

## Task Output GI50 of `O=S(=O)(O)c1ccc(O)c(/N=N/c2c(O)ccc3ccccc23)c1`
## Result > 100 µM (inactive)

## Task Give recorded GI50. `COc1ccc(C(=O)/C=C/c2cccnc2)cc1OC`
## Result 4.44 µM (inactive)

## Task Determine its reported GI50: `Cc1ccc(S(=O)(=O)N/N=C2\C=C[C@]3(CC2)C(=O)N(C)c2ccccc23)cc1`
## Result > 100 µM (inactive)

## Task Given O=C1CCC(=O)C(C(=O)CCC(=O)Nc2cccc(Cl)c2)C1 (stereo unspecified) , respond with its GI50.
## Result > 100 µM (inactive)

###

For each record, write down the corresponding GI50.
Tested on: OVCAR-3
Assay: NCI tumour cell line growth inhibition, 48 h
Calls of active or inactive are those of the source. No stated cut-off is given here; in the data, active = GI50 up to about 1.1 µM and inactive = higher.

## Task Let me know recorded GI50 for O=C1NC2(CCCCC2)C2CCCCC(O)C12 (stereo not given) , thanks.
## Result > 100 µM (inactive)

## Task Please list GI50 recorded for the compound `CCOC(=O)C(=O)C=P(c1ccccc1)(c1ccccc1)c1ccccc1`
## Result > 100 µM (inactive)

## Task Give reported GI50 value for NC(=O)c1ccccc1NC(=O)C(=O)C(c1cnc2ccc([N+](=O)[O-])cc2n1)[N+](=O)[O-] (stereo not given)
## Result > 100 µM (inactive)

## Task Return reported GI50. Input compound: C=C1CCC2[C@@H](CCC3[C@]2(C)CCC[C@]3(C)C(=O)OC)C1CCO (stereo not given in full)
## Result 12.6 µM (inactive)

## Task Respond only with GI50 recorded for `COc1cc(C)cc(C(=O)/C=C/c2ccccc2)c1O`
## Result 16.5 µM (inactive)

## Task Name the recorded GI50 of the compound listed here: `COc1cc(-c2oc3c(OC)cc(OC)c(O)c3c(=O)c2OC)cc(OC)c1OC`
## Result 4.79 µM (inactive)

## Task Please supply the value of reported GI50 for the item `CC(C)(C)c1ccc(C(O)c2ccc(C(C)(C)C)cc2)cc1`
## Result 14.5 µM (inactive)

## Task Given the compound O=C1CCC2COc3ccc(O)c1c32 (stereo not given) , write its reported GI50.
## Result > 100 µM (inactive)

## Task Return GI50 for the following compound: `CC(C)C(=O)/C=C/c1ccc(Br)cc1`
## Result 14.2 µM (inactive)

## Task Please report the measured GI50 for `COc1ccc(C2NC3=C(CCCC3)N2)cc1`
## Result 71 µM (inactive)
